SYSTEM_UNDER_TEST: PP2AA1 (Arabidopsis thaliana)
Construct: recombinant His-PP2AA1 (pET28a, coding region)
Sequence (Q38845 1-588): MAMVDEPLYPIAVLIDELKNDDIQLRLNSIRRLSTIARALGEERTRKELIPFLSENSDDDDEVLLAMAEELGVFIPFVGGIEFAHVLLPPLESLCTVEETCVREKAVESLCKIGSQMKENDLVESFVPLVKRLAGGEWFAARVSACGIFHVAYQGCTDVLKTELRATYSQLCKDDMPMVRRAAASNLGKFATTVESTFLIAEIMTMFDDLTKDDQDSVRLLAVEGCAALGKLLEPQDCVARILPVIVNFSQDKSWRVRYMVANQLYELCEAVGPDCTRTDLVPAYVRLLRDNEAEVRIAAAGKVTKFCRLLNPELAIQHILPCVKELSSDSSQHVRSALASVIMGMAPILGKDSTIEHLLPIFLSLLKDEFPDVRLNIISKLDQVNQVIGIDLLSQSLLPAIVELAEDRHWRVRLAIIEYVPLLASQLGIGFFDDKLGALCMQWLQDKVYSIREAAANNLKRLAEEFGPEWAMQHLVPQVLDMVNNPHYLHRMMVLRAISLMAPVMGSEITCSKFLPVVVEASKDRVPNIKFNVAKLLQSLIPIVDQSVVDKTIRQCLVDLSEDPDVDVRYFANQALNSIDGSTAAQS
TEST_DESCRIPTION: SPR, steady state; SA-f immobilized on CM5 chip, His-PP2AA1 flowed over
PARAMETER: Kd (µM)
A number alone suffices; assume µM.

Find the measured Kd: item NCCCCCOc1ccc(O)c(C(=O)O)c1 [SA-f] , target or system PP2AA1 (Arabidopsis thaliana).
3.62
